Attribute: Kb
- Target Under Test: human orexin 2 receptor (Homo sapiens (Human), UniProt O43614)
- Sequence (O43614 whole entry): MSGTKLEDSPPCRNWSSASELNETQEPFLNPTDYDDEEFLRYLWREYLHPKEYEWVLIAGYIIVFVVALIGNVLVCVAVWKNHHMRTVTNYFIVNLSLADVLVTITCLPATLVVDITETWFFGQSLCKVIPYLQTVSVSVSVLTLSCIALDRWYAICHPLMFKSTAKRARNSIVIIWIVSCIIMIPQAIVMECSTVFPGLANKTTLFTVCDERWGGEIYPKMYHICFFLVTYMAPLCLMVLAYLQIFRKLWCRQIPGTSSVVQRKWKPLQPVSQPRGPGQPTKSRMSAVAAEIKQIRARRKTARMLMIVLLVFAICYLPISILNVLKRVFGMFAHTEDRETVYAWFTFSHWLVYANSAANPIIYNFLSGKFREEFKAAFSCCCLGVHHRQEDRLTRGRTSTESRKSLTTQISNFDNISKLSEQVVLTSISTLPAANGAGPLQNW
- Method Notes: Human orexin 2 receptor Ca2+ mobilization assay (FLIPR, PFSK cells, orexin B 100 nM)
- Format: cell-based
- Settings: modified Cheng-Prusoff correction, read-out: OR 2 Kb

Log: human orexin 2 receptor (Homo sapiens (Human), UniProt O43614), compound COc1ccnc(N2CC3CN(C(=O)c4ccccc4-c4cccs4)CC3C2)n1 (centres unmarked) [Example 45] , Kb = 0.01 µM

Log: human orexin 2 receptor (Homo sapiens (Human), UniProt O43614), compound COc1cc(OC)nc(N2CC3CN(C(=O)c4ccccc4-n4nccn4)CC3C2)n1 (centres unmarked) [Example 84] , Kb = 0.025 µM

Log: human orexin 2 receptor (Homo sapiens (Human), UniProt O43614), compound Cc1cc(C)nc(N2CC3CN(C(=O)c4cccc5cccc(-n6nccn6)c45)CC3C2)n1 (centres unmarked) [Example 328] , Kb = 0.04 µM

Log: human orexin 2 receptor (Homo sapiens (Human), UniProt O43614), compound CCOc1ccc2ccccc2c1C(=O)N1CC2CN(c3cnc4ccccc4n3)CC2C1 (centres unmarked) [Example 145] , Kb = 0.032 µM

Log: human orexin 2 receptor (Homo sapiens (Human), UniProt O43614), compound Cc1cc(C)nc(N2CC3CN(C(=O)c4ccc(F)cc4-c4ncccn4)CC3C2)n1 (centres unmarked) [Example 231] , Kb = 0.007 µM

Log: human orexin 2 receptor (Homo sapiens (Human), UniProt O43614), compound Cc1cc(C)nc(N2CC3CN(C(=O)c4ccccc4-c4nc(C)no4)CC3C2)n1 (centres unmarked) [Example 306] , Kb = 0.013 µM

Log: human orexin 2 receptor (Homo sapiens (Human), UniProt O43614), compound Cc1cc(C)nc(N2CC3CN(C(=O)c4sccc4-c4ccccc4)CC3C2)n1 (centres unmarked) [Example 12] , Kb = 0.032 µM

Log: human orexin 2 receptor (Homo sapiens (Human), UniProt O43614), compound CN(C)c1nc(N2CC3CN(C(=O)c4cc(F)ccc4-c4ncccn4)CC3C2)cc(C(F)(F)F)n1 (centres unmarked) [Example 109] , Kb = 0.025 µM

----------
Attribute: Kb
- Target Under Test: human orexin 2 receptor (Homo sapiens (Human))
- Method Notes: Human orexin 2 receptor Ca2+ mobilization assay (FLIPR, PFSK cells, orexin B 100 nM)
- Assay type: cell-based
- Settings: modified Cheng-Prusoff correction, read-out: OR 2 Kb
A number alone suffices; assume nM.

Known Kb results, listed for orientation:
INSERT INTO assay_data (compound, assay_value) VALUES
  ('Cc1cc(C)nc(N2CC3CN(C(=O)c4nc(C)sc4-c4ccccc4F)CC3C2)n1 (centres unmarked) [Example 132]', 79),
  ('COc1cc(N2CC3CN(C(=O)c4c(F)cccc4-n4nccn4)CC3C2)nc(N(C)C)n1 (centres unmarked) [Example 1]', 10),
  ('O=C(c1ccccc1-c1cccs1)N1CC2CN(c3nc4ccccc4o3)CC2C1 (centres unmarked) [Example 139]', 63),
  ('O=C(c1ccccc1-c1cccs1)N1CC2CN(c3nccc(-c4ccccc4)n3)CC2C1 (centres unmarked) [Example 22]', 158),
  ('Cc1ccc(-c2ncccn2)c(C(=O)N2CC3CN(c4nc(C)cc(C)n4)CC3C2)c1 (centres unmarked) [Example 102]', 6),
  ('CN(C)c1nc(N2CC3CN(C(=O)c4c(F)cccc4-c4ncccn4)CC3C2)cc(C(F)(F)F)n1 (centres unmarked) [Example 116]', 13);

Log: human orexin 2 receptor (Homo sapiens (Human)), compound CN(C)c1nc(N2CC3CN(C(=O)c4ccccc4-n4nccn4)CC3C2)cc(C(F)(F)F)n1 (centres unmarked) [Example 121] , Kb = 13

Log: human orexin 2 receptor (Homo sapiens (Human)), compound Cc1ccnc(N2CC3CN(C(=O)c4ccccc4-c4cccs4)CC3C2)n1 (centres unmarked) [Example 32] , Kb = 32
